Reported HC10 values follow for various molecules
Test system: Erythrocyte
Assay: Hemolytic activity in human erythrocytes incubated for 1 hr by ELISA reader analysis
Type: toxicity, cell-based
Square brackets hold non-standard residues; d marks the D form. Peptide text beside a SMILES is read from it. Nle = CCCC[C@H](N)C(=O)O; Dap = NC[C@H](N)C(=O)O

>>> measurement("CC[C@H](C)[C@H](NC(=O)[C@H](CCCNC(=N)N)NC(=O)[C@H](CN)NC(=O)[C@H](CC(C)C)NC(=O)[C@H](CC(C)C)NC(=O)CN)C(=O)N[C@@H](CCCCN)C(=O)N[C@H](C(=O)N[C@@H](CC(C)C)C(=O)N[C@@H](CC(C)C)C(N)=O)[C@@H](C)O (H-GLL[Dap]RIKTLL-NH2)")
"> 500 µM"
>>> measurement("CC[C@H](C)[C@H](NC(=O)[C@H](CCCNC(=N)N)NC(=O)[C@H](CCCCN)NC(=O)[C@H](CC(C)C)NC(=O)[C@H](COC)NC(=O)CN)C(=O)N[C@@H](CCCCN)C(=O)N[C@H](C(=O)N[C@@H](CC(C)C)C(=O)N[C@@H](CC(C)C)C(N)=O)[C@@H](C)O (H-GS(Me)LKRIKTLL-NH2)")
"> 500 µM"
>>> measurement("CCCC[C@H](NC(=O)[C@H](CCCC)NC(=O)[C@@H](NC(=O)[C@H](CCCCN)NC(=O)[C@@H](NC(=O)[C@H](CCCNC(=N)N)NC(=O)[C@H](CCCCN)NC(=O)[C@H](CCCC)NC(=O)[C@H](CCCC)NC(=O)CN)[C@@H](C)CC)[C@@H](C)O)C(N)=O (H-G[Nle][Nle]KRIKT[Nle][Nle]-NH2)")
"> 500 µM"

Consider the record given below.
[Q] So what's the measured HC10 for this one? CC[C@H](C)[C@H](NC(=O)[C@H](CCCNC(=N)N)NC(=O)[C@H](CCCCN)NC(=O)[C@H](COC)NC(=O)[C@H](COC)NC(=O)CN)C(=O)N[C@@H](CCCCN)C(=O)N[C@H](C(=O)N[C@@H](COC)C(=O)N[C@@H](COC)C(N)=O)[C@@H](C)O (H-GS(Me)S(Me)KRIKTS(Me)S(Me)-NH2)
[A] > 500 µM
